- test_summary: protein stability index of a GFP-peptide fusion (GPS, HEK-293T) (PSI 1-6); higher = more stable;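 also: 24-mer peptide tiles fused after GFP, lentivirally expressed, FACS-sorted into six equal bins by GFP/DsRed ratio, decoded by Illumina sequencing, PSI is the read-weighted mean bin number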
- measurement_setup: treatment: MLN4924 1 uM, 8 h; c terminus: a fixed tail appended
Decision: protein stability index compared against 4; not below it gives Satisfied, below it gives Not satisfied.

> print(dat)
                         chain.sequence            cat
 1     LHAPPAFYSTSSGLANGLQLLCPW [VENTX]  Not satisfied
 2      QTPQVNINPFTPDSLLLHSSGQCR [WEE1]  Not satisfied
 3     STSSSTQGDPAFPEMNGNGAVAPM [NOL4L]      Satisfied
 4   VKDEAHQAQKDPKKDRPLARRKSE [PPP2R5C]      Satisfied
 5     KFIKPWESPDEMELDELLKEISRK [PTPRD]  Not satisfied
 6    KQTREQLHSISDSVLFLQEFGALM [TRIM29]  Not satisfied
 7  KAVKDLVVLLFETALLSSGFSLED [HSP90AB1]  Not satisfied
 8     RGFCAFLGSWLVPFAYLTVLDLSK [POMT2]  Not satisfied
 9     KAKRRNQEMQQKLVELSAENEKLH [CEBPD]      Satisfied
10     RIATETDQIGSEIIEELGEQRDQL [VTI1B]      Satisfied
11     LFIQKEEQLQQILKRKNKQAFLDE [MNAT1]  Not satisfied
12     LPAGPGEEWERRPQEPRPPKRATK [CPXM2]      Satisfied
13    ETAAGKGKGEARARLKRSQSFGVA [SMTNL2]      Satisfied
14      ATPRQVPSLQHLCRMSIRRVMPTQ [WSB1]  Not satisfied
15     SVAEGYYSHRETVNGSWYIQDLCE [CASP6]  Not satisfied
16    LLRAKIEVEKLKAIRLRHDLPEYN [RAD54B]  Not satisfied
17     LEPVKKSRLQLLGATCMFVASKMK [CCND1]  Not satisfied
18      NVLHGYPKDIYSSFGFPRTVKHID [MMP1]  Not satisfied
19     NQLSQAELDELASKAPVLTYGQPK [EFHC1]      Satisfied
20    RLATVHMSRMINKYKRRRFQKTKN [CLPTM1]  Not satisfied
21     IFRNLCQMQEDNSSFSLLLDLLSE [INTS3]  Not satisfied
22      CQEEQLRSHENKLRQLTAELAEHR [PSD2]      Satisfied
23    PPLREIILGPSSAYTQTQFHNLRN [NFE2L1]  Not satisfied
24     IVGWRCRVGQWVRMENVTVLGEDV [GMPPB]  Not satisfied
25     DLVERALYSMECAFHPLFSLTSGA [TCF25]  Not satisfied
26   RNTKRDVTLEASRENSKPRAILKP [PPP2R2B]      Satisfied

Reference source for all entries: the supplement of paper PMC10567573
